Below: a set of entries, each annotated with reported relative viability.
# Test system: A-427
# assay.method.text: relative viability (nuclei count vs DMSO), 5 days (fraction); higher = more cells survive
# details: first compound 0.08 µM
Could you keep your reply to the number by itself?

Past entries and their recorded results:
compound: CCCCCCCCCCCC1=C(O)C(=O)C=C(O)C1=O [Embelin] + O=C(CCCCCCC(=O)Nc1ccccc1)NO [Vorinostat] (partner 1 µM)
measured.number: 0.856

compound: CCCCCCCCCCCC1=C(O)C(=O)C=C(O)C1=O [Embelin] + CC(=O)Nc1cccc(-n2c(=O)n(C3CC3)c(=O)c3c(Nc4ccc(I)cc4F)n(C)c(=O)c(C)c32)c1 [Trametinib] (partner 0.02 µM)
measured.number: 0.732

compound: CCCCCCCCCCCC1=C(O)C(=O)C=C(O)C1=O [Embelin] + C[C@@H](Oc1cc(-c2cnn(C3CCNCC3)c2)cnc1N)c1c(Cl)ccc(F)c1Cl [Crizotinib] (partner 1 µM)
measured.number: 0.905

compound: CCCCCCCCCCCC1=C(O)C(=O)C=C(O)C1=O [Embelin] + CC(C)C[C@H](NC(=O)[C@H](Cc1ccccc1)NC(=O)c1cnccn1)B(O)O [Bortezomib] (partner 0.002 µM)
measured.number: 1.05

Briefly, relative viability measured for CCCCCCCCCCCC1=C(O)C(=O)C=C(O)C1=O [Embelin] + C[C@]1(O)C[C@@H](c2nc(-c3ccc4ccc(-c5ccccc5)nc4c3)c3c(N)nccn32)C1 [Linsitinib] (partner 1 µM) : 1.11

GET /value?item= CCCCCCCCCCCC1=C(O)C(=O)C=C(O)C1=O [Embelin] + Nc1ncn([C@H]2C[C@H](O)[C@@H](CO)O2)c(=O)n1 [Decitabine] (partner 2 µM) &field=relative viability returns 0.494

Record CCCCCCCCCCCC1=C(O)C(=O)C=C(O)C1=O [Embelin] + Cc1nc(Nc2ncc(C(=O)Nc3c(C)cccc3Cl)s2)cc(N2CCN(CCO)CC2)n1 [Dasatinib] (partner 0.075 µM) . Reported relative viability: 0.689

* * *

Listed here are compounds together with their documented relative viability.
# Tested on: NCI-H647
# assay.method.text: relative viability (nuclei count vs DMSO), 5 days (fraction); higher = more cells survive
# details: first compound 0.1265 µM
A bare number is all that is needed in reply.

Here are 3 compounds together with their reported answers.
compound: C[C@@H]1CN(CC(=O)Nc2ccc3c(c2)Cc2cccc(-c4cc(=O)cc(N5CCOCC5)o4)c2S3)C[C@H](C)O1 + CC1(C)CCC(c2ccc(Cl)cc2)=C(CN2CCN(c3ccc(C(=O)NS(=O)(=O)c4ccc(N[C@H](CCN5CCOCC5)CSc5ccccc5)c(S(=O)(=O)C(F)(F)F)c4)cc3)CC2)C1 [Navitoclax] (partner 0.5 µM)
measured.number: 1.09
--
compound: Clc1ccc(Nc2nnc(Cc3ccncc3)c3ccccc23)cc1 [Vatalanib] + Cc1nc(Nc2ncc(C(=O)Nc3c(C)cccc3Cl)s2)cc(N2CCN(CCO)CC2)n1 [Dasatinib] (partner 0.075 µM)
measured.number: 0.184
--
compound: C[C@@H]1CN(CC(=O)Nc2ccc3c(c2)Cc2cccc(-c4cc(=O)cc(N5CCOCC5)o4)c2S3)C[C@H](C)O1 + CCNC(=O)c1noc(-c2cc(C(C)C)c(O)cc2O)c1-c1ccc(CN2CCOCC2)cc1 [Luminespib] (partner 0.01 µM)
measured.number: 0.153

// relative viability value for COc1cc(N2CCC(C(N)=O)CC2)ccc1Nc1nc(N)c(Cl)c(Nc2ccccc2S(=O)(=O)C(C)C)n1 [HG-5-88-01] + Nc1ncn([C@H]2C[C@H](O)[C@@H](CO)O2)c(=O)n1 [Decitabine] (partner 2 µM) : 0.494

* * *

# System: HCC-44
# assay.method.text: relative viability (nuclei count vs DMSO), 5 days (fraction); higher = more cells survive
# details: first compound 0.04 µM
readout.kind: relative viability
Please give only the number in your answer, with no unit.

Examples from the recorded data:
compound: C[C@@H]1CN(CC(=O)Nc2ccc3c(c2)Cc2cccc(-c4cc(=O)cc(N5CCOCC5)o4)c2S3)C[C@H](C)O1 + Cc1cc(Nc2cc(N3CCN(C)CC3)nc(Sc3ccc(NC(=O)C4CC4)cc3)n2)n[nH]1 [Tozasertib] (partner 0.1 µM)
measured.number: 0.862
--
compound: C[C@@H]1CN(CC(=O)Nc2ccc3c(c2)Cc2cccc(-c4cc(=O)cc(N5CCOCC5)o4)c2S3)C[C@H](C)O1 + CC(=O)c1c(C)c2cnc(Nc3ccc(N4CCNCC4)cn3)nc2n(C2CCCC2)c1=O [Palbociclib] (partner 0.5 µM)
measured.number: 0.917
--
compound: Clc1ccc(Nc2nnc(Cc3ccncc3)c3ccccc23)cc1 [Vatalanib] + N=C(N)NC(=N)NCCc1ccccc1 [Phenformin] (partner 250 µM)
measured.number: 0.178

Continue with the next compound.
Reported relative viability (HCC-44) for entry COc1cc(N2CCC(C(N)=O)CC2)ccc1Nc1nc(N)c(Cl)c(Nc2ccccc2S(=O)(=O)C(C)C)n1 [HG-5-88-01] + O=C(c1cc(Cc2n[nH]c(=O)c3ccccc23)ccc1F)N1CCN(C(=O)C2CC2)CC1 [Olaparib] (partner 8 µM) is 0.912

* * *

# Tested on: SK-MES-1
# assay.method.text: relative viability (nuclei count vs DMSO), 5 days (fraction); higher = more cells survive
# details: first compound 0.4 µM
readout.kind: relative viability

Noted for COc1cc(N2CCC(C(N)=O)CC2)ccc1Nc1nc(N)c(Cl)c(Nc2ccccc2S(=O)(=O)C(C)C)n1 [HG-5-88-01] + CC1(C)CCC(c2ccc(Cl)cc2)=C(CN2CCN(c3ccc(C(=O)NS(=O)(=O)c4ccc(N[C@H](CCN5CCOCC5)CSc5ccccc5)c(S(=O)(=O)C(F)(F)F)c4)cc3)CC2)C1 [Navitoclax] (partner 0.5 µM) : its relative viability reads 1.2

Record C[C@@H]1CN(CC(=O)Nc2ccc3c(c2)Cc2cccc(-c4cc(=O)cc(N5CCOCC5)o4)c2S3)C[C@H](C)O1 + COc1cccc2cc(-c3nc([C@H]4CC[C@H](C(=O)O)CC4)n4ncnc(N)c34)[nH]c12 [OSI-027] (partner 0.5 µM) . Reported relative viability: 0.503

Just so you know, measured relative viability for Clc1ccc(Nc2nnc(Cc3ccncc3)c3ccccc23)cc1 [Vatalanib] + CC(=O)c1c(C)c2cnc(Nc3ccc(N4CCNCC4)cn3)nc2n(C2CCCC2)c1=O [Palbociclib] (partner 0.5 µM) came out at 0.347

Record C[C@@H]1CN(CC(=O)Nc2ccc3c(c2)Cc2cccc(-c4cc(=O)cc(N5CCOCC5)o4)c2S3)C[C@H](C)O1 + Cc1cc(Nc2cc(N3CCN(C)CC3)nc(Sc3ccc(NC(=O)C4CC4)cc3)n2)n[nH]1 [Tozasertib] (partner 0.1 µM) , field relative viability: 0.826

Reported relative viability for Clc1ccc(Nc2nnc(Cc3ccncc3)c3ccccc23)cc1 [Vatalanib] + CC(=O)Nc1cccc(-n2c(=O)n(C3CC3)c(=O)c3c(Nc4ccc(I)cc4F)n(C)c(=O)c(C)c32)c1 [Trametinib] (partner 0.02 µM) was 0.573

* * *

# Test system: COR-L23
# assay.method.text: relative viability (nuclei count vs DMSO), 5 days (fraction); higher = more cells survive
# details: first compound 0.04 µM
Consider the following compounds and their measured relative viability readings.

Recorded results for 3 compounds are shown here.
compound: COc1cc(N2CCC(C(N)=O)CC2)ccc1Nc1nc(N)c(Cl)c(Nc2ccccc2S(=O)(=O)C(C)C)n1 [HG-5-88-01] + CC(=O)c1c(C)c2cnc(Nc3ccc(N4CCNCC4)cn3)nc2n(C2CCCC2)c1=O [Palbociclib] (partner 0.5 µM)
readout.kind: relative viability
result: 0.383
--
compound: COc1cc(N2CCC(C(N)=O)CC2)ccc1Nc1nc(N)c(Cl)c(Nc2ccccc2S(=O)(=O)C(C)C)n1 [HG-5-88-01] + Cc1cc(Nc2cc(N3CCN(C)CC3)nc(Sc3ccc(NC(=O)C4CC4)cc3)n2)n[nH]1 [Tozasertib] (partner 0.1 µM)
readout.kind: relative viability
result: 0.202
--
compound: C[C@@H]1CN(CC(=O)Nc2ccc3c(c2)Cc2cccc(-c4cc(=O)cc(N5CCOCC5)o4)c2S3)C[C@H](C)O1 + Nc1nc2[nH]cc(CCc3ccc(C(=O)N[C@@H](CCC(=O)O)C(=O)O)cc3)c2c(=O)[nH]1 [Pemetrexed] (partner 0.2 µM)
readout.kind: relative viability
result: 0.189

Reported relative viability (COR-L23) for entry COc1cc(N2CCC(C(N)=O)CC2)ccc1Nc1nc(N)c(Cl)c(Nc2ccccc2S(=O)(=O)C(C)C)n1 [HG-5-88-01] + COc1cccc2cc(-c3nc([C@H]4CC[C@H](C(=O)O)CC4)n4ncnc(N)c34)[nH]c12 [OSI-027] (partner 0.5 µM) is 0.772

* * *

relative viability values, listed per item
# Tested on: PC-3 [JPC-3]
# assay.method.text: relative viability (nuclei count vs DMSO), 5 days (fraction); higher = more cells survive
# details: first compound 0.04 µM
No unit in the answer, only the number.

Some compounds with recorded relative viability:
compound: COc1cc(N2CCC(C(N)=O)CC2)ccc1Nc1nc(N)c(Cl)c(Nc2ccccc2S(=O)(=O)C(C)C)n1 [HG-5-88-01] + C[C@]1(O)C[C@@H](c2nc(-c3ccc4ccc(-c5ccccc5)nc4c3)c3c(N)nccn32)C1 [Linsitinib] (partner 1 µM)
target.or.test.system: PC-3 [JPC-3]
measured.number: 0.964
//
compound: Clc1ccc(Nc2nnc(Cc3ccncc3)c3ccccc23)cc1 [Vatalanib] + COc1cccc2cc(-c3nc([C@H]4CC[C@H](C(=O)O)CC4)n4ncnc(N)c34)[nH]c12 [OSI-027] (partner 0.5 µM)
target.or.test.system: PC-3 [JPC-3]
measured.number: 0.752

The reported value for Clc1ccc(Nc2nnc(Cc3ccncc3)c3ccccc23)cc1 [Vatalanib] + O=C(CCCCCCC(=O)Nc1ccccc1)NO [Vorinostat] (partner 1 µM) in terms of relative viability is 0.837
